biological target: NHERF2_2, Q15599; assay: holdup assay; parameters: key: below the threshold = too weak to quantify, mostly under pKd 3.1 to 4; conditions: plain residues with an end cap or a label only (N-terminal biotin on a linker: ado-ado)
Sequence (Q15599 142-238): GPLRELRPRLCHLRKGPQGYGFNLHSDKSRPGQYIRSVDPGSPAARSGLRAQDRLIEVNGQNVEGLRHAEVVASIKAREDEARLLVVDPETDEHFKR
value.type: pKd

KSRVAFFEEL [NF2, P35240]	3.89
DFLSTFHIRI [CIB2, O75838]	below the threshold
DGVNEKVSCV [HTR2A, P28223]	below the threshold
